ASSAY_EXPLANATION: Primary qHTS for inhibitors of nuclear receptor binding SET domain protein 2 (NSD2) in an isogenic RCH-ACV NSD2 p.E1099K mutant (9B) (AID 1645876); further: nearly all actives have a fitted effect of over 70% in size
ASSAY_CONDITIONS: RCH-ACV NSD2 E1099K (9B) viability, CellTiter-Glo, 72 h; series mostly up to 44.9 µM
Results filed as inconclusive are left out. Active and inactive are the calls of the source. The call rests on the fitted dose curve; in most records, active means well fitted inhibition curve with a large enough effect; inconclusive means small, poorly fitted or top-dose-only effect; inactive means flat fitted curve, though single readings scatter.
Answer with one of the outcomes active, inactive

How did this test come out for "Cc1ccc(C)c(OCCn2cc(C(=O)O)c3ccccc32)c1" ?
inactive

Give the logged outcome of this assay for the following compound: CC(=O)OC1C[C@]2(C)C(O)CC(C)=C[C@H](OC(=O)c3ccc(O)cc3)C2[C@]1(O)C(C)C (stereo not given in full)
inactive

Recorded test outcome, item C=C1OC2CC(C(=O)O)C=CC2NC1=O (stereo not given)
inactive

Assay outcome for CC1CC[C@]2(C(=O)O)CC[C@]3(C(=O)O)C(=CCC4[C@@]5(C)CC[C@H](OC6OC(C)C(O)C(OC7OC(CO)C(O)C(O)C7O)C6O)C(C)(C)C5CC[C@]43C)C2C1C (stereo not given in full) : what was it?
inactive

In this assay, the call recorded for CC(O)CCC1C(CO[C@@H]2O[C@H](CO)[C@@H](O)[C@H](O)[C@H]2O)CC(O)CC1(C)C (stereo not given in full) was what?
inactive

// outcome(item) with item = "Nc1nc2c(c(=O)[nH]1)C[C@@H](CCc1ccc(C(=O)N[C@@H](CCC(=O)O)C(=O)O)cc1)CN2"
active

Answer briefly: the call reported for C/C(=C\CC[C@@H](C)[C@H]1CC(O)[C@@]2(C)C3CC[C@H]4C(C)(C)[C@@H](OC5OCC(O)C(O)C5OC5OC(CO)C(O)C(O)C5O)CC[C@@]45C[C@@]35CC(O)[C@]12C)C(=O)O (stereo not given in full) in this assay.
inactive

Assay outcome for C=C1C(OC(C)=O)CCC2(C)CC3(OC)OC(=O)C(C)=C3CC12 (stereo not given) : what was it?
inactive

Status in this test for "C=C[C@H]1[C@H](O[C@@H]2O[C@H](CO)[C@@H](O)[C@H](O)[C@H]2O)OC=C(C(=O)OC)[C@H]1CC(=O)O" ?
inactive

Which outcome was entered for the compound CC(=O)CC1CCC(C(C)C(=O)OCC(O)CO)O1 (stereo not given) in this test?
inactive

What did this assay record as the result for CC(C)CC1NC(=O)C(C)NC(=O)C(CC(C)C)OC(=O)CCCNC1=O (stereo not given) ?
inactive

Assay outcome for "O=[N+]([O-])c1cccc2[nH]c(CNc3nc(N4CCOCC4)nc4c3ncn4-c3ccsc3)nc12" : what was it?
active

Please state the recorded outcome for this compound: "O=C(COc1cccc2c(=O)[nH]ccc12)c1ccccc1"
inactive

What did this assay record as the result for "CCn1cc(NC(=S)Nc2cc(Cl)ccc2OC)c(C(N)=O)n1" ?
inactive

Per the records of this test, what outcome belongs to "COCCOc1ccc(N2CCN(CCn3ncc4c3nc(N)n3nc(-c5ccco5)nc43)CC2)cc1" ?
inactive

----------
System: SKOV3
ASSAY_EXPLANATION: Primary qHTS to identify gynecologic anti-cancer compounds using libraries of approved drugs and bioactive compounds (AID 1345084); further: nearly all actives have a fitted effect of over 55% in size; further: potency means the concentration at half of the fitted maximal effect
ASSAY_CONDITIONS: Gynecologic cancer cell panel viability, ATPlite luminescence, 48 h; series mostly up to 57.5 µM
Results filed as inconclusive are left out. Active and inactive are the calls of the source. The call rests on the fitted dose curve; in most records, active means well fitted cell-killing curve with a large enough effect; inconclusive means small, poorly fitted or top-dose-only effect, or effect the other way; inactive means flat fitted curve, though single readings scatter.
QUANTITY_KIND: Potency

Worked examples, 5 compounds total:
COc1cc(/C=C/CO)cc(OC)c1O[C@@H]1O[C@H](CO[C@@H]2O[C@H](CO)[C@@H](O)[C@H](O)[C@H]2O)[C@@H](O)[C@H](O)[C@H]1O | inactive
C=C1C(=O)O[C@@H]2C/C(C)=C\C(=O)/C=C(\C)[C@@H](OC(=O)/C(C)=C\C)[C@H](O)[C@@H]12 | 11.2 µM (active)
CC1CCC2(C(=O)O)CCC3(C)C(=CCC4C5(C)CCC(O)C(C)(CO)C5CCC43C)C2C1(C)O (stereo unspecified) | inactive
C=C1CCC2C(C)(C(=O)O)CCCC2(C)C1CC/C(=C\CO)CO (stereo unspecified) | inactive
CC1=CC(=O)C2(OC3OC(C)C(O)C(OC(=O)/C=C/c4ccccc4)C3O)C=COC(OC3OC(CO)C(O)C(O)C3O)C12 (stereo unspecified) | inactive

Would you kindly look at the next entry?
Return Potency measured with SKOV3 given this compound: "C[C@@H]1O[C@@H](O[C@H]2[C@@H]3C=CO[C@@H](O[C@@H]4O[C@H](CO)[C@@H](O)[C@H](O)[C@H]4O)[C@@H]3[C@@]3(CO)O[C@@H]23)[C@H](OC(=O)/C=C/c2ccc(O)c(O)c2)[C@H](O)[C@H]1O"
inactive

----------
ASSAY_EXPLANATION: Primary qHTS for inhibitors of nuclear receptor binding SET domain protein 2 (NSD2) in an isogenic RCH-ACV NSD2 p.E1099K mutant (9B) (AID 1645876); further: nearly all actives have a fitted effect of over 70% in size
ASSAY_CONDITIONS: RCH-ACV (leukaemia line) NSD2 E1099K (9B) viability, CellTiter-Glo, 72 h; series mostly up to 44.9 µM
Records with an inconclusive call do not appear. Activity calls are given as the source filed them. The call rests on the fitted dose curve; in most records, active means well fitted inhibition curve with a large enough effect; inconclusive means small, poorly fitted or top-dose-only effect; inactive means flat fitted curve, though single readings scatter.
Return exactly one item of yes (1) (active), no (0) (inactive)

Hi team, can someone confirm the assay call for C[C@@H]1CC[C@]2(C(=O)O)CC[C@]3(C)C(=CCC4[C@@]5(C)CC[C@H](O)C(C)(C)C5C(O)C[C@]43C)[C@@H]2[C@]1(C)O (stereo not given in full) ?
no (0)

Would you mind telling me which call this test gave C=C1CCC2C(C)(C(=O)O)CCCC2(C)C1CCC(C)CC(=O)O (stereo not given) ?
no (0)

What was the test verdict on COc1cc(O)cc(C)c1C(=O)OC1C(CO)OC(OC2C(O)C(O)C(O)C(O)C2O)C(O)C1O (stereo not given) ?
no (0)

In this assay, the call recorded for COC(=O)/C=C/C12COC(C)(C)C1C(O)C(OC(C)=O)C1(C)C2CCC2(C)C(c3ccoc3)OC(=O)C3OC321 (stereo not given) was what?
no (0)

Called result for "CC(C)[C@@H]1C(=O)N(S(C)(=O)=O)[C@@H]2CCN(C(=O)/C=C/CN3CCCCC3)[C@H]21"
no (0)

// outcome(item) with item = "C=C[C@H]1[C@H](O[C@@H]2O[C@H](CO)[C@@H](O)[C@H](O)[C@H]2O)OC=C(C(=O)OC)[C@H]1CCOC(=O)c1cc(O)c(O)c(O)c1"
no (0)

GET /call?item= "C[C@@H]1CCC/C=C/[C@H]2CC(=O)C[C@@H]2[C@@H](O)/C=C/C(=O)O1" returns the recorded outcome of this test.
no (0)

How was "NC(=O)c1cnc(NCCc2ccc(O)c(Cl)c2)nc1NCc1ccccc1" classified in this test?
yes (1)

Could you check what this test reported for "COC(=O)N(C)c1c(N)nc(-c2nn(Cc3ccccc3F)c3ncccc23)nc1N" ?
no (0)

Call for entry CC1(C)CC[C@]2(C(=O)O)CC[C@]3(C)C(=CCC4[C@@]5(C)CC[C@H](O[C@@H]6O[C@H](CO)[C@@H](O)[C@H](O)[C@H]6O[C@@H]6O[C@H](CO)[C@@H](O)[C@H](O)[C@H]6O)[C@@](C)(CO)C5CC[C@]43C)[C@@H]2C1 (stereo not given in full) :
no (0)

Give the logged outcome of this assay for the following compound: "CC/C=C\CCO[C@@H]1O[C@H](CO[C@@H]2OC[C@H](O)[C@H](O)[C@H]2O)[C@@H](O)[C@H](O)[C@H]1O"
no (0)

Assay result, entry "O=C(CCc1nnc2n(Cc3ccc(Cl)cc3)c(=O)c3ccccc3n12)NCCC1=CCCCC1" — outcome?
no (0)

Could you please tell me the result logged for CC1CCC2(CO)C(C(=O)O)=CCCC2C1(C)CCc1ccoc1 (stereo not given) in this assay?
no (0)

Returns: the outcome recorded for O=C1NC2CCc3nc4ccccc4c(=O)n3C2=Nc2ccccc21 (stereo not given) in this assay.
no (0)

Give the logged outcome of this assay for the following compound: Cc1nc(NC(=O)N2CCCC2C(N)=O)sc1-c1csc(C(C)(C)C)n1 (stereo not given)
yes (1)

Test call for this compound, please: C=C(C(=O)O)C1CC(O)C2(C)CCCC(=C)C2C1 (stereo not given)
no (0)

Short answer needed: outcome of this test for COC(=O)CCSCc1ccc(-c2onc(C)c2NC(=O)OC(C)c2ccccc2Cl)cc1 (stereo not given) ?
no (0)

What did the test return for "CCn1c(=O)c(-c2ccn[nH]2)cc2c(C)nc(N)nc21" ?
yes (1)

# lookup: test call for "Nc1ccc(-c2cccc3c(=O)cc(N4CCOCC4)oc23)cc1"
yes (1)

Hi, sorry to bother you, what did the test record for "Cc1cccc2c1NC(=O)C2(c1ccc(O)cc1)c1ccc(O)cc1" ?
yes (1)

Record lookup: outcome of this test for CC1(C)C2CC=C(COC3OC(COC4OCC(O)(CO)C4O)C(O)C(O)C3O)C1C2 (stereo not given) ?
no (0)

Fill in: this test's call for "CC(C)[C@@](C)(O)[C@@H]1CN(c2nc(-c3[nH]nc4ncccc34)c(F)cc2Cl)CCN1" is ___
yes (1)

Assay result, entry "C[C@@H]([C@@H](O)c1ccc(O)cc1)N1CCC(O)(c2ccccc2)CC1" — outcome?
no (0)

Assay result, entry C=C(C)C(=O)OC1C(OC(C)=O)/C(C=O)=C\CC/C(CO)=C/C2OC(=O)C(=C)C21 (stereo not given) — outcome?
yes (1)

For CC(C)CC(=O)OC1OC=C(CO[C@@H]2O[C@H](CO)[C@@H](O)[C@H](O)[C@H]2O)C2CC(O)C(O)(CO)C12 (stereo not given in full) , what call appears in the results of this test?
no (0)
